# Measurement Notes: Urinary excretion study in rats after oral NS, SF or CNS (LC–MS/MS)
# Assay type: in vivo
# Condition Set: male, Sprague Dawley, rat, urine, oral, 60 mg/kg, oral NS 60 mg/kg, 8 h
Measurement Name: concentration at 8 h (ng/mL)
Lab book: enter the figure in ng/mL, no units written.

molecule="CC(C)=CCC[C@](C)(O[C@@H]1O[C@H](CO)[C@@H](O)[C@H](O)[C@H]1O)[C@H]1CC[C@]2(C)[C@@H]1[C@H](O)C[C@@H]1[C@@]3(C)CC[C@H](O[C@@H]4O[C@H](CO)[C@@H](O)[C@H](O)[C@H]4O[C@@H]4O[C@H](CO)[C@@H](O)[C@H](O)[C@H]4O)C(C)(C)[C@@H]3CC[C@]12C [ginsenoside Rd]" obs_value=9
molecule="CC(C)=CCC[C@](C)(O[C@@H]1O[C@H](CO[C@@H]2O[C@H](CO)[C@@H](O)[C@H](O)[C@H]2O)[C@@H](O)[C@H](O)[C@H]1O)[C@H]1CC[C@]2(C)[C@@H]1[C@H](O)C[C@@H]1[C@@]3(C)CC[C@H](O[C@@H]4O[C@H](CO)[C@@H](O)[C@H](O)[C@H]4O[C@@H]4O[C@H](CO)[C@@H](O)[C@H](O)[C@H]4O)C(C)(C)[C@@H]3CC[C@]12C [ginsenoside Rb1]" obs_value=140
molecule="CC(C)=CCC[C@](C)(O[C@@H]1O[C@H](CO)[C@@H](O)[C@H](O)[C@H]1O)[C@H]1CC[C@]2(C)[C@@H]1[C@H](O)C[C@@H]1[C@@]3(C)CC[C@H](O)C(C)(C)[C@@H]3[C@@H](O[C@@H]3O[C@H](CO)[C@@H](O)[C@H](O)[C@H]3O[C@@H]3O[C@@H](C)[C@H](O)[C@@H](O)[C@H]3O)C[C@]12C [ginsenoside Re]" obs_value=40

(Q) Give the measured concentration at 8 h for CC(C)=CCC[C@](C)(O[C@@H]1O[C@H](CO)[C@@H](O)[C@H](O)[C@H]1O)[C@H]1CC[C@]2(C)[C@@H]1[C@H](O)C[C@@H]1[C@@]3(C)CC[C@H](O)C(C)(C)[C@@H]3[C@@H](O[C@@H]3O[C@H](CO)[C@@H](O)[C@H](O)[C@H]3O)C[C@]12C [ginsenoside Rg1]
(A) 1140
